Numbers sourced from patent US12037344B2.

molecular target: TLR7 (Homo sapiens, UniProt Q9NYK1); construct: human HEK-Blue cells co-expressing a TLR7 or TLR8 gene; assay: In vitro human TLR7 binding reporter assay (HEK-Blue, NF-kB/AP1-inducible SEAP); format: cell-based; settings: activity range class, read-out: TLR7 Agonist EC50
Sequence (Q9NYK1 27-1049): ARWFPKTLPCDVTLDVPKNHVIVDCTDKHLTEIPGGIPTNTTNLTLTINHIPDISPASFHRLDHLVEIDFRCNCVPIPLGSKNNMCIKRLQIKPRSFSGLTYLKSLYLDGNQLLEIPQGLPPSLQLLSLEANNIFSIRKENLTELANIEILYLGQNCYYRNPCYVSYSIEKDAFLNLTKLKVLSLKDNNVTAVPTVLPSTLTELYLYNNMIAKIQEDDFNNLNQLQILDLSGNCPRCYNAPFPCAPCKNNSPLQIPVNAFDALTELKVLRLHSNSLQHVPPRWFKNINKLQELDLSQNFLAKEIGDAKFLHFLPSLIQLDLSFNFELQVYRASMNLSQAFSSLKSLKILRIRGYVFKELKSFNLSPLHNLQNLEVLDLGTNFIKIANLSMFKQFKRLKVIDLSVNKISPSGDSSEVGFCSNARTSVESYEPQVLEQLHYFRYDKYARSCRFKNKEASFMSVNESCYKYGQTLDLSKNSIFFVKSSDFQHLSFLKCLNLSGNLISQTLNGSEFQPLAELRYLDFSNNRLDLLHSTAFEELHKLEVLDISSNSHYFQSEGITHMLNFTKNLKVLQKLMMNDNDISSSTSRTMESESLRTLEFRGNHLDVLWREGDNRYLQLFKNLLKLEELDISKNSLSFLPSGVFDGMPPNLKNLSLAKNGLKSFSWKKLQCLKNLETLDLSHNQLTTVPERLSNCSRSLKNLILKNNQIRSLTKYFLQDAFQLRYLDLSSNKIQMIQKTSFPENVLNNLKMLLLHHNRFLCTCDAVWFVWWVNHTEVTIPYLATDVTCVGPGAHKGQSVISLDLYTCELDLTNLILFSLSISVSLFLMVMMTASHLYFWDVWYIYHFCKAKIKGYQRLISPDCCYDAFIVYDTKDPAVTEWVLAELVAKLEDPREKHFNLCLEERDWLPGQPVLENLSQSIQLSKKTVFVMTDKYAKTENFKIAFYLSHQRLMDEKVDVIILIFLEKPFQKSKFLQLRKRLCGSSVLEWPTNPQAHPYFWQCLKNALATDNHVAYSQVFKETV
pEC50: −log10 of the molar value.
Experimental readout: pEC50

> print(dat)
                                   compound                         assay.target  result
1  Cc1nc(C(=O)NCCn2cc3c(n2)c(N)nc2cc(-c4cc[nH]n4)ccc23)c(C)o1  TLR7 (Homo sapiens, UniProt Q9NYK1)  < 4.00

query: Hello, please tell me recorded pEC50 for this one: "COc1ccc(C(=O)NCCn2cc3c(n2)c(N)nc2cc(-c4cc[nH]n4)ccc23)cc1"
result: < 4.00

query: Hello, please tell me recorded pEC50 for this one: "Nc1nc2cc(-c3cc[nH]n3)ccc2c2cn(CCNC(=O)c3ccc(OC(F)(F)F)cn3)nc12"
result: < 4.00

query: Hello, please tell me recorded pEC50 for this one: "Cc1cccc(C(=O)NCCn2cc3c(n2)c(N)nc2cc(-c4cc[nH]n4)ccc23)n1"
result: < 4.00
